# tgt: STAT6 (Homo sapiens, UniProt P42226)
# Construct: stably transfected HaCaT keratinocyte cell line, which expresses NanoLuc luciferase reporter gene under the transcriptional control of the STAT6 responsive promoter; endogenous in cells; host or cells: HaCaT keratinocyte reporter cell line (stably transfected with a NanoLuc reporter)
# Sequence (P42226 whole entry): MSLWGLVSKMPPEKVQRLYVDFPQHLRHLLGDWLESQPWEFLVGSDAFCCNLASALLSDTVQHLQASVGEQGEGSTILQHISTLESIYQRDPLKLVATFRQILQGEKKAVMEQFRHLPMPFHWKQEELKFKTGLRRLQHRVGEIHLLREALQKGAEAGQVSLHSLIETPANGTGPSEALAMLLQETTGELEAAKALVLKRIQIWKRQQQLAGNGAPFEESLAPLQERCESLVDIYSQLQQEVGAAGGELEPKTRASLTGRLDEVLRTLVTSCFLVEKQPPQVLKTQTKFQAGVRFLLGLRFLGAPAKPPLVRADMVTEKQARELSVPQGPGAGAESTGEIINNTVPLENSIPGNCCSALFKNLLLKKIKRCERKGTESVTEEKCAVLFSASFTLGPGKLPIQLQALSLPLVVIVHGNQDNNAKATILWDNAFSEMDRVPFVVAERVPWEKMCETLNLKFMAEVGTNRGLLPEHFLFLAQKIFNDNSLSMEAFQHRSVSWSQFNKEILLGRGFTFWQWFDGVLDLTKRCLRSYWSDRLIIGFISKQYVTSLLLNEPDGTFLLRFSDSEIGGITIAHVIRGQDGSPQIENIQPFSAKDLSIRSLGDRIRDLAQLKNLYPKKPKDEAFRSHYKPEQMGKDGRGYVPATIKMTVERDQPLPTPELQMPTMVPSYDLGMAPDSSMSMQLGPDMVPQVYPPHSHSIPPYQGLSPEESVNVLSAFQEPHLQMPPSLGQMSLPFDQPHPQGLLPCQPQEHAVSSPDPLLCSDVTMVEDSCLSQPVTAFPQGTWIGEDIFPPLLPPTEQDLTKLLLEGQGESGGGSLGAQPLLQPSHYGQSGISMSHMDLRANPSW
# protocol: STAT6 Reporter Luciferase Assay (IL-13 stimulated HaCaT keratinocyte NanoLuc reporter cells)
# Assay type: cell-based
# applied_conditions: IL-13 stimulated HaCaT STAT6 NanoLuc reporter cells; read-out: Reporter EC50
measured_parameter: EC50

# molecule, reported_result
rows = [
    ("CC(C)n1nc(C(=O)NCc2ccc(NC(=O)N3CCC(C4CCNCC4)CC3)cc2)c2c1[C@@H](C)CN(c1ccc(C(=O)N(C)C)cc1)C2 [Example 620]", "1 nM"),
    ("CC(C)n1nc(C(=O)NCc2ccc(NC(=O)N(C)C)cc2)c2c1CCN(c1ccc(C3CCOC3)cn1)C2 (racemic) [Example 345]", "> 2630 nM"),
]

--- query ---
Measured EC50, CC(C)n1nc(C(=O)NCc2ccc(NC(=O)N(C)C)cc2)c2c1CCN(c1ccc(C(=O)N3C[C@@H]4C[C@H]3C(=O)N4)cn1)C2 [Example 227] : > 6120 nM

###

# tgt: STAT6 (Homo sapiens, UniProt P42226)
# Construct: stably transfected HaCaT keratinocyte cell line, which expresses NanoLuc luciferase reporter gene under the transcriptional control of the STAT6 responsive promoter; endogenous in cells; host or cells: HaCaT keratinocyte reporter cell line (stably transfected with a NanoLuc reporter)
# protocol: STAT6 Reporter Luciferase Assay (IL-13 stimulated HaCaT keratinocyte NanoLuc reporter cells)
# Type: cell-based
# applied_conditions: IL-13 stimulated HaCaT STAT6 NanoLuc reporter cells; read-out: Reporter EC50
Below, each of the compounds is paired with its reported EC50 value.
Numbers only; they are read as nM.

Worked cases, answers included:
# compound, tgt, unit_name, reported_result
data = [
    ("COC1(C)CN(C(=O)c2ccc(N3CCc4c(c(C(=O)NCc5ccc(NC(=O)N(C)C)cc5)nn4C(C)C)C3)nc2)C1", "STAT6 (Homo sapiens, UniProt P42226)", "nM", 1930),
    ("CC(C)n1nc(C(=O)NCc2ccc(NC(=O)N3CC4(CCCN(C)C4)C3)c(F)c2)c2c1[C@@H](C)CN(c1ccc(C(=O)N(C)C)cc1)C2", "STAT6 (Homo sapiens, UniProt P42226)", "nM", 1),
    ("CC(C)n1nc(C(=O)NCc2ccc(NC(=O)N(C)C)cc2)c2c1CCN(c1ccc(C(=O)N3CCNC(=O)C3(C)C)cn1)C2", "STAT6 (Homo sapiens, UniProt P42226)", "nM", 272),
]

--- query ---
Measured EC50, C[C@H]1CN(c2ccc(C(=O)N(C)C)cn2)Cc2c(C(=O)NCc3ccc(NC(=O)N(C)C)cc3)nn(CC(F)(F)F)c21 (single isomer, unassigned) : 0.5

###

Below, each of the compounds is paired with its reported EC50 value.
# tgt: STAT6 (Homo sapiens, UniProt P42226)
# Construct: stably transfected HaCaT keratinocyte cell line, which expresses NanoLuc luciferase reporter gene under the transcriptional control of the STAT6 responsive promoter; endogenous in cells; host or cells: HaCaT keratinocyte reporter cell line (stably transfected with a NanoLuc reporter)
# protocol: STAT6 Reporter Luciferase Assay (IL-13 stimulated HaCaT keratinocyte NanoLuc reporter cells)
# Format: cell-based
# applied_conditions: STAT6 NanoLuc luciferase reporter, IL-13 stimulated HaCaT keratinocyte cells; read-out: Reporter EC50
Numbers only; they are read as nM.

Worked cases, answers included:
# entry_smiles, measured_parameter, unit_name, reported_result
records = [
    ("CN(C)C(=O)Nc1ccc(CNC(=O)c2nc(C(F)(F)F)n3c2CN(c2ccc(-c4nccn4C)cn2)CC3)cc1", "EC50", "nM", 10),
    ("CC(C)n1nc(C(=O)NCc2ccc(NC(=O)NC3CCC3)cc2)c2c1CCN(c1ccc(C(=O)N(C)C)cn1)C2", "EC50", "nM", 8),
    ("CN(C)C(=O)Nc1ccc(CNC(=O)c2nn(C)c3c2CN(c2ccc(-c4nccn4C)cn2)CC3)cc1", "EC50", "nM", 16),
]

--- query ---
Measured EC50, "CNC(=O)Nc1ccc(CNC(=O)c2nn(C(C)C)c3c2CN(c2ccc(C(=O)N(C)C)cn2)CC3)cc1" : 7
